# conditionNotes: in isobutyl acetate, 288.15 K
quantity: solubility (mole fraction)

Notebook: COc1ccc(C=O)cc1O , solubility (mole fraction) read as 0.0184

* * *

# conditionNotes: in ethyl acetate, 303.15 K
quantity: solubility (mole fraction)
Reply: number alone, nothing else.

Notebook: COc1ccc(C=O)cc1O , solubility (mole fraction) read as 0.0478

* * *

# conditionNotes: in n-propanol, 318.15 K
quantity: solubility (mole fraction)
Reply: number alone, nothing else.

Notebook: COc1ccc(C=O)cc1O , solubility (mole fraction) read as 0.0751

* * *

# conditionNotes: in methanol, 308.15 K
quantity: solubility (mole fraction)
Reply: number alone, nothing else.

Notebook: COc1ccc(C=O)cc1O , solubility (mole fraction) read as 0.059

* * *

# conditionNotes: in formic acid, 318.15 K
quantity: solubility (mole fraction)
Reply: number alone, nothing else.

Notebook: COc1ccc(C=O)cc1O , solubility (mole fraction) read as 0.165

* * *

# conditionNotes: in methanol, 318.15 K
quantity: solubility (mole fraction)
Reply: number alone, nothing else.

Notebook: COc1ccc(C=O)cc1O , solubility (mole fraction) read as 0.134

* * *

# conditionNotes: in n-butanol, 303.15 K
quantity: solubility (mole fraction)
Reply: number alone, nothing else.

Notebook: COc1ccc(C=O)cc1O , solubility (mole fraction) read as 0.0352

* * *

# conditionNotes: in isobutyl acetate, 278.15 K
quantity: solubility (mole fraction)

Notebook: COc1ccc(C=O)cc1O , solubility (mole fraction) read as 0.015

* * *

# conditionNotes: in methanol, 293.15 K
quantity: solubility (mole fraction)
Reply: number alone, nothing else.

Notebook: COc1ccc(C=O)cc1O , solubility (mole fraction) read as 0.0291

* * *

# conditionNotes: in ethyl acetate, 278.15 K
quantity: solubility (mole fraction)
Reply: number alone, nothing else.

Notebook: COc1ccc(C=O)cc1O , solubility (mole fraction) read as 0.0203

* * *

# conditionNotes: in ethanol, 283.15 K
quantity: solubility (mole fraction)
Reply: number alone, nothing else.

Notebook: COc1ccc(C=O)cc1O , solubility (mole fraction) read as 0.0153

* * *

# conditionNotes: in n-propanol, 293.15 K
quantity: solubility (mole fraction)
Reply: number alone, nothing else.

Notebook: COc1ccc(C=O)cc1O , solubility (mole fraction) read as 0.0284

* * *

# conditionNotes: in isobutyl acetate, 303.15 K
quantity: solubility (mole fraction)

Notebook: COc1ccc(C=O)cc1O , solubility (mole fraction) read as 0.0305

* * *

# conditionNotes: in isopropanol, 298.15 K
quantity: solubility (mole fraction)

Notebook: COc1ccc(C=O)cc1O , solubility (mole fraction) read as 0.0186

* * *

# conditionNotes: in ethanol, 293.15 K
quantity: solubility (mole fraction)
Reply: number alone, nothing else.

Notebook: COc1ccc(C=O)cc1O , solubility (mole fraction) read as 0.0227
